SYSTEM TESTED: PRC2^Y641N/Y661D (Homo sapiens, UniProt Q15910, Y641N/Y661D)
Sequence (Q15910 whole entry Y641N/Y661D): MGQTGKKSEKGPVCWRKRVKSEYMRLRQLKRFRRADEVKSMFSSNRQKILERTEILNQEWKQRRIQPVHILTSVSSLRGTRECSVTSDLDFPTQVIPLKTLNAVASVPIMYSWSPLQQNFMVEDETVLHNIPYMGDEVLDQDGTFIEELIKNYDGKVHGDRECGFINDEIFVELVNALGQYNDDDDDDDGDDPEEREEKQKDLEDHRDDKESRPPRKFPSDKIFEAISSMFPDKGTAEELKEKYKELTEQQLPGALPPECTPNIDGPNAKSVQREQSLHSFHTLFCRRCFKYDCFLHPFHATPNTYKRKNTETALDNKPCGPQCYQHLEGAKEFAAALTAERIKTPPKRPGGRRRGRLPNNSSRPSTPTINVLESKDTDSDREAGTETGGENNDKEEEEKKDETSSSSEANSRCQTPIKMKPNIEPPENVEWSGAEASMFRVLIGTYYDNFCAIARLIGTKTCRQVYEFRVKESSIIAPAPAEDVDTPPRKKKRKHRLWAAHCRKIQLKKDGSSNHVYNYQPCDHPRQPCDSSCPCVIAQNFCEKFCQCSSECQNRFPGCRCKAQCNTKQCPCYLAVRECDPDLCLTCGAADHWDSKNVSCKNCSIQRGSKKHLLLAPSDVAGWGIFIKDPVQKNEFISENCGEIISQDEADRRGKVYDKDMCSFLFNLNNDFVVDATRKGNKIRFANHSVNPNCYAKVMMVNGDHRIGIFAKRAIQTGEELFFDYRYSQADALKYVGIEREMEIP
Sequence (O75530 whole entry partner): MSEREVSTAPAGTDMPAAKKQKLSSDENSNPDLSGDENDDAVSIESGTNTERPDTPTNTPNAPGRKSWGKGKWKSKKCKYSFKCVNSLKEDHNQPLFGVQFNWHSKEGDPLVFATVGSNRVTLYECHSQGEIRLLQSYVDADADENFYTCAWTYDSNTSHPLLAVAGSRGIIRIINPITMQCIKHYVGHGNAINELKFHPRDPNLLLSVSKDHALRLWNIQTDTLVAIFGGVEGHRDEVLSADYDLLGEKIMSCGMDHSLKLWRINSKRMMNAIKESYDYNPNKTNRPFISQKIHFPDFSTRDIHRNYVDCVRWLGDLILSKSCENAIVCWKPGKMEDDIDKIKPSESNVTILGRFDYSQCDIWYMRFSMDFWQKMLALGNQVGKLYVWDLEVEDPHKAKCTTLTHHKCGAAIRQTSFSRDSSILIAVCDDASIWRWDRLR
Sequence (Q15022 whole entry partner): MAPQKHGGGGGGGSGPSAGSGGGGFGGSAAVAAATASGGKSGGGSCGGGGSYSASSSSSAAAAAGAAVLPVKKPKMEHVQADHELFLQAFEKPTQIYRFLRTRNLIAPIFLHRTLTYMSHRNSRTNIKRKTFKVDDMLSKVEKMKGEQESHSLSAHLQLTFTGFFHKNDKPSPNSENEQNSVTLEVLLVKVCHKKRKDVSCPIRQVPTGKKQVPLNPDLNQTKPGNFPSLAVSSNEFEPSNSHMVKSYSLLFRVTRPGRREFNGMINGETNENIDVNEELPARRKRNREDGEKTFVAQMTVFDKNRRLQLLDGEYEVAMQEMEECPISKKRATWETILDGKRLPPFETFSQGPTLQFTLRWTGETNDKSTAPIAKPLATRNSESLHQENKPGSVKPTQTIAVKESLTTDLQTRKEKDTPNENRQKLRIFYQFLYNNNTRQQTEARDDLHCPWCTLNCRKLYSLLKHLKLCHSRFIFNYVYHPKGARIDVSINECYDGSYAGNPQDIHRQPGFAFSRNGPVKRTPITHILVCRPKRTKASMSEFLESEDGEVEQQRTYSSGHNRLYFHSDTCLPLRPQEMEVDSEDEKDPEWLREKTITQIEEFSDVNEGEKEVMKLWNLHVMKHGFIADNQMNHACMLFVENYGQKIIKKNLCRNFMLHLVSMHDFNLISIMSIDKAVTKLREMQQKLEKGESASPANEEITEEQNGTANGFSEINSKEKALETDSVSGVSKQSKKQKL
Type: biochemical
STATED CONDITIONS: read-out: IC50 Y641N/Y6661D; substrate H3K27Me1 peptide; [SAM] 20 μM
MEASURE: IC50

> print(dat)
                                        mol  measure  experimental.result
1  CCC(CC)n1ccc2c(C(=O)NCc3c(C)cc(C)[nH]c3=O)cc(C#N)cc21     IC50              > 25 µM

* * *

SYSTEM TESTED: PRC2^Y641N/Y661D (Homo sapiens, UniProt Q15910, Y641N/Y661D)
Format: biochemical
STATED CONDITIONS: read-out: IC50 Y641N/Y6661D; substrate H3K27Me2 peptide; [SAM] 20 μM
MEASURE: IC50

> print(dat)
                                        mol                             system.tested  experimental.result
1  CCC(CC)n1ccc2c(C(=O)NCc3c(C)cc(C)[nH]c3=O)cc(C#N)cc21  PRC2^Y641N/Y661D (Homo sapiens, UniProt Q15910, Y641N/Y661D)              > 25 µM

Data credit: paper PMC4744243
